Measured Copies/cell class, HCL1 by item
- tested on: HLA-B*0702 (HLA-B7) peptide complexes (Homo sapiens, UniProt P01889)
- Construct: endogenous in cells; host or cells: JY B-lymphoblastoid line; primary ALL, CLL, HCL, AML samples; bone marrow; healthy B and T cells
- assay explanation: HLA-B*0702 phosphopeptides associated with leukemia samples (isolation of HLA-associated peptides)
- recorded conditions: hairy cell leukemia sample HCL1
Non-standard residues stand in square brackets, D forms with d. No end group written: not given here. pT = C[C@@H](OP(=O)(O)O)[C@H](N)C(=O)O; pS = N[C@@H](COP(=O)(O)O)C(=O)O

Below, 4 substances whose answers are already recorded.
INSERT INTO measurements (substance, observed_result) VALUES
  ('344 (RP[pS]SPALYF; listed as Homo sapiens) [compound 344]', '1 (1 indicates <1 copy/cell)'),
  ('289 (KPQTRGK[pT]F; listed as Homo sapiens) [compound 289]', '1 (1 indicates <1 copy/cell)'),
  ('388 (TPR[pS]PPLGLI; listed as Homo sapiens) [compound 388]', '2 (2 indicates 1-5 copies/cell)'),
  ('312 (RPD[pS]RLGKTEL; listed as Homo sapiens) [compound 312]', '1 (1 indicates <1 copy/cell)');

Field: next substance
Query :: Name the reported Copies/cell class, HCL1 value associated with the substance 308 (RPA[pS]ARAQPGL; listed as Homo sapiens) [compound 308]
Result :: 2 (2 indicates 1-5 copies/cell)
